Values of IC50 for Tyrosine-protein kinase JAK3 (Homo sapiens, UniProt P52333), collected from a number of published sources:

Below, each entry is followed by its recorded IC50 result.
{"chemicalString": "Cc1ccnc(NC(=O)c2ccc(Oc3ccnc4[nH]nc(N[C@@H]5CCCN(S(C)(=O)=O)C5)c34)cc2)c1", "IC50": "> 10 µM"}
{"chemicalString": "N#Cc1ccc2ncn(-c3ncc4nc(-c5cnc(N)nc5)n(C5CCOCC5)c4n3)c2c1", "IC50": "< 0.1 µM"}
{"chemicalString": "C=CC(=O)N[C@H]1CC[C@H](n2nc(-c3ccc(Oc4ccccc4)cc3)c3c(N)ncnc32)CC1", "IC50": "> 10 µM"}

Ask: Determine from records and report IC50 for "CCC(CC)n1cc(-c2nc(-c3cnn(C4CN(C(=O)[C@@H](C)O)C4)c3)cn3nccc23)cn1"
Reply: 1 to 10 µM

Ask: Determine from records and report IC50 for "C=CC[C@H](Cn1ccc2cnc(Nc3cnn(CC(=O)OC(C)C)c3)nc21)C(C)C"
Reply: < 0.1 µM

Ask: Determine from records and report IC50 for "CCC(CC)n1cc(-c2nc(-c3cnn(C[C@H](C)O)c3)cn3nccc23)cn1"
Reply: 1 to 10 µM

Ask: Determine from records and report IC50 for "Cc1ccc(NC(=O)c2ccccc2C(F)(F)F)cc1-c1ccc2c(c1)[nH]c1ncncc12"
Reply: ≤ 0.5 µM

Ask: Determine from records and report IC50 for "C=CC(=O)Nc1ccc(Nc2cc(Nc3cccc(Br)c3)ncn2)cc1"
Reply: ≥ 10 µM
